# systemUnderTest: EZH2 (Homo sapiens (Human))
# Sequence (Q15910 whole entry): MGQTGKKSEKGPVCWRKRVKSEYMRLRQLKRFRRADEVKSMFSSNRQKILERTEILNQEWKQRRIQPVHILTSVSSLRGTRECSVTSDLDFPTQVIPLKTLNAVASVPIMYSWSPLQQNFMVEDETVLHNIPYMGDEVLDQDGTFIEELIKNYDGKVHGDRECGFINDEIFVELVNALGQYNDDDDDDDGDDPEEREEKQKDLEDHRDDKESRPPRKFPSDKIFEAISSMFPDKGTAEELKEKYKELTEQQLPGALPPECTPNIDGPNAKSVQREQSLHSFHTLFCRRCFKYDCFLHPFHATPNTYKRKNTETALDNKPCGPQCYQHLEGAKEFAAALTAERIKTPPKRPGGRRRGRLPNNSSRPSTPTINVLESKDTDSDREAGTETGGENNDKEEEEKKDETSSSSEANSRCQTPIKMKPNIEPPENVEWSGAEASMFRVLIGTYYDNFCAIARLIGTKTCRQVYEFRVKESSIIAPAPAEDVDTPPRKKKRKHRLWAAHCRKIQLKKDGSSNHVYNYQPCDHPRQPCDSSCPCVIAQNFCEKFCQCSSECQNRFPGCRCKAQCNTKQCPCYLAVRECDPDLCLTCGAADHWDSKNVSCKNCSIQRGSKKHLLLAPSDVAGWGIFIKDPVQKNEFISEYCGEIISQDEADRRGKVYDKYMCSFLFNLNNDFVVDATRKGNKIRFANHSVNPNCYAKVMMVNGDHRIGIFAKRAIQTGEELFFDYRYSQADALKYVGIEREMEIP
# Sequence (O75530 whole entry partner): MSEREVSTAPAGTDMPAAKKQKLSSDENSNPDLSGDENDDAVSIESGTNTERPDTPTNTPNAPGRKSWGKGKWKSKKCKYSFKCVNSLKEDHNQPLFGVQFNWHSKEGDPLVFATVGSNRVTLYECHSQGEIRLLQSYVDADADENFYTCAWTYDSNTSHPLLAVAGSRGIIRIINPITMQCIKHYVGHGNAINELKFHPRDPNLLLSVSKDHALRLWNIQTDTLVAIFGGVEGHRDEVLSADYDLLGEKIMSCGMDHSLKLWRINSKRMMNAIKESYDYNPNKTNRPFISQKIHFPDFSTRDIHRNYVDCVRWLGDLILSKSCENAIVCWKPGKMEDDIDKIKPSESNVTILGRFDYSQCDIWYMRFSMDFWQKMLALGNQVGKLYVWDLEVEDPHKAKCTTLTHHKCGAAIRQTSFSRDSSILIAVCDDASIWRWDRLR
# Sequence (Q15022 whole entry partner): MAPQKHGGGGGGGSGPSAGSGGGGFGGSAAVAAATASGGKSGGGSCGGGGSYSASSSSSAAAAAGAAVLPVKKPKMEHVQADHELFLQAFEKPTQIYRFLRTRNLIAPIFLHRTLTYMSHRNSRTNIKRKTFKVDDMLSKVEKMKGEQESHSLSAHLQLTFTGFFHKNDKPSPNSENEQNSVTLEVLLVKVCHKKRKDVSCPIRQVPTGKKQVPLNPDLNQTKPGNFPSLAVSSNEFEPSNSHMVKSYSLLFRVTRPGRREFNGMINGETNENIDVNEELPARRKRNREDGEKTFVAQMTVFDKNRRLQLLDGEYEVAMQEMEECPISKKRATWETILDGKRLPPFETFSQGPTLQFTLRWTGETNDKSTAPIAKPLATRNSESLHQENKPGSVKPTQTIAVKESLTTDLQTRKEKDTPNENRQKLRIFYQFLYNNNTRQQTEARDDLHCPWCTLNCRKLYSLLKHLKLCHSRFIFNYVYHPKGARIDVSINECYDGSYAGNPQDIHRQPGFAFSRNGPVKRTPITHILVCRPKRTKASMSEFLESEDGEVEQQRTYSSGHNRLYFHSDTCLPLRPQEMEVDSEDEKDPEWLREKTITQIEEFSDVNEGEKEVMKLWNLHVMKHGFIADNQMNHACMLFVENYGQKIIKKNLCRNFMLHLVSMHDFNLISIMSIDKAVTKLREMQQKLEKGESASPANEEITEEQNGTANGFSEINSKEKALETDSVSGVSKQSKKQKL
# Sequence (Q09028 whole entry partner): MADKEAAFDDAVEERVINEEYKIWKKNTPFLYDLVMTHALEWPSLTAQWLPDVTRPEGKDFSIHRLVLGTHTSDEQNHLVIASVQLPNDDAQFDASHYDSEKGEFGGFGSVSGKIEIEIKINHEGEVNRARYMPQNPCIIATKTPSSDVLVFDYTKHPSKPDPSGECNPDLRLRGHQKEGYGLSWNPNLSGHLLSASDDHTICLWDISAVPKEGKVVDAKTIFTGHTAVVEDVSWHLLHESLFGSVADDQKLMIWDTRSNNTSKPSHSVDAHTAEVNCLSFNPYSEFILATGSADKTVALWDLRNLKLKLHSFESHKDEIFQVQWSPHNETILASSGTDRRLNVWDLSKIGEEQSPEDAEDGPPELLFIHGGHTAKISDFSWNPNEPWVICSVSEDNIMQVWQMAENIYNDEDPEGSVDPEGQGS
# experimentalDetails: E-cadherin promoter luciferase reporter gene primary screening in 293T cells
# Assay type: cell-based
# cond: compound 1 μM, 293T cells treated for 24 hours, Dual-Glo luciferase
Please use Fulfilled for 1 μM relative fluorescence intensity under 200 and Not fulfilled for everything else, ties included.

{"compound": "CCN(C(=O)C1CCCC1)c1cc(C(N)=O)cc(C(=O)NCc2c(C)cc(C)[nH]c2=O)c1C [Compound 34]", "labelValue": "Fulfilled"}
{"compound": "CCN(C(=O)C1CCCC1)c1cc(-c2ccc(CN3CCNCC3)cc2)cc(C(=O)NCc2c(C)cc(C)[nH]c2=O)c1C [Compound 25]", "labelValue": "Fulfilled"}
{"compound": "CCN1CCN(Cc2ccc(-c3cc(C(=O)NCc4c(C)cc(C)[nH]c4=O)c(C)c(N(CC)C(=O)C4CCCC4)c3)cc2)CC1 [Compound 23]", "labelValue": "Not fulfilled"}
{"compound": "CCN(C(=O)C1CCCC1)c1cc(-c2ccc(N3CCN(C(=O)OC(C)(C)C)CC3)nc2)cc(C(=O)NCc2c(C)cc(C)[nH]c2=O)c1C [Compound 29]", "labelValue": "Fulfilled"}
{"compound": "CCN(C(=O)C1CC2C=CC1C2)c1cc(-c2ccc(CN3CCOCC3)cc2)cc(C(=O)NCc2c(C)cc(C)[nH]c2=O)c1C (stereo not drawn) [Compound 60]", "labelValue": "Fulfilled"}
{"compound": "CCN(C(=O)C1CCCC1)c1cc(-c2ccc(N3CCN(C(C)C)CC3)nc2)cc(C(=O)NCc2c(C)cc(C)[nH]c2=O)c1C [Compound 18]", "labelValue": "Not fulfilled"}
{"compound": "CCN(C(=O)C1CCCC1)c1cc(-c2ccc(Oc3ccccc3)cc2)cc(C(=O)NCc2c(C)cc(C)[nH]c2=O)c1C [Compound 41]", "labelValue": "Fulfilled"}
{"compound": "CCN(C(=O)C1CCCC1)c1cc(-c2ccc(N3CCC(N)CC3)nc2)cc(C(=O)NCc2c(C)cc(C)[nH]c2=O)c1C [Compound 37]", "labelValue": "Fulfilled"}
{"compound": "CCN(C(=O)C1CCCC1)c1cc(-c2ccc(C#N)c(F)c2)cc(C(=O)NCc2c(C)cc(C)[nH]c2=O)c1C [Compound 19]", "labelValue": "Fulfilled"}
{"compound": "CCN(C(=O)C1CCCC1)c1cc(-c2ccc(NS(=O)(=O)C3CC3)cc2)cc(C(=O)NCc2c(C)cc(C)[nH]c2=O)c1C [Compound 28]", "labelValue": "Fulfilled"}
{"compound": "CCN(C(=O)C1CCCC1)c1cc(C#N)cc(C(=O)NCc2c(C)cc(C)[nH]c2=O)c1C [Compound 33]", "labelValue": "Fulfilled"}
{"compound": "CCN(C(=O)C1CCCC1)c1cc(-c2ccc(CN3CCNC[C@H]3CO)cc2)cc(C(=O)NCc2c(C)cc(C)[nH]c2=O)c1C [Compound 35]", "labelValue": "Fulfilled"}
{"compound": "CCN(C(=O)C1CCCC1)c1cc(-c2ccc(C(C)=O)s2)cc(C(=O)NCc2c(C)cc(C)[nH]c2=O)c1C [Compound 43]", "labelValue": "Fulfilled"}
{"compound": "CCN(C(=O)C1CCCC1)c1cc(-c2ccc(N3CCN(CC4CC4)CC3)nc2)cc(C(=O)NCc2c(C)cc(C)[nH]c2=O)c1C [Compound 15]", "labelValue": "Not fulfilled"}
{"compound": "CCN(C(=O)C1CCCC1)c1cc(-c2ccc(OCCCN3CCOCC3)cc2)cc(C(=O)NCc2c(C)cc(C)[nH]c2=O)c1C [Compound 30]", "labelValue": "Not fulfilled"}
{"compound": "CCN(C(=O)C1CCCC1)c1cc(-c2ccc(OCCCN3CCOCC3)cc2F)cc(C(=O)NCc2c(C)cc(C)[nH]c2=O)c1C [Compound 44]", "labelValue": "Fulfilled"}
{"compound": "CCN(C(=O)C1CCCC1)c1cc(-c2ccc(CC(=O)N3CCOCC3)cc2)cc(C(=O)NCc2c(C)cc(C)[nH]c2=O)c1C [Compound 22]", "labelValue": "Fulfilled"}
{"compound": "CCN(C(=O)C1CCCC1)c1cc(-c2ccnc(N3CCN(C)CC3)c2)cc(C(=O)NCc2c(C)cc(C)[nH]c2=O)c1C [Compound 17]", "labelValue": "Fulfilled"}
{"compound": "CCN(C(=O)C1CCCC1)c1cc(-c2ccc(N3CCN(C)CC3)nc2)cc(C(=O)NCc2c(C)cc(C)[nH]c2=O)c1C [Compound 36]", "labelValue": "Not fulfilled"}
{"compound": "CCN(C(=O)C1CCCC1)c1cc(-c2ccc(C(=O)N3CCOCC3)cc2)cc(C(=O)NCc2c(C)cc(C)[nH]c2=O)c1C [Compound 20]", "labelValue": "Fulfilled"}
{"compound": "CCN(C(=O)C1CCCC1)c1cc(-c2ccc(OCCCN3CCOCC3)c(F)c2)cc(C(=O)NCc2c(C)cc(C)[nH]c2=O)c1C [Compound 42]", "labelValue": "Fulfilled"}
{"compound": "CCN(C(=O)C1CCCC1)c1cc(-c2ccc(N3CCOCC3)cc2)cc(C(=O)NCc2c(C)cc(C)[nH]c2=O)c1C [Compound 21]", "labelValue": "Fulfilled"}
{"compound": "CCN(C(=O)C1CCCC1)c1cc(-c2ccc(OCCCN3CCOCC3)cc2C)cc(C(=O)NCc2c(C)cc(C)[nH]c2=O)c1C [Compound 45]", "labelValue": "Fulfilled"}
